system: human Claudin18.2 (human)
test: cell-based or functional assay
Entries and their measured CDC EC50 follow.
outcome-measure: CDC EC50

| binder | outcome-measure | value-measured |
| --- | --- | --- |
| chimeric 410H6H3 (antibody, human IgG1, kappa, V domains shown, chimeric, human IgG1/kappa constant regions; also called 410H6H3-Chimeric) VH: DVLLVESGGGLVQPGGSRKLSCAASGFTFSSSGMHWVRQAPEKGLEWVAYISSGSNTIYYADTLKGRFTISRDNPKNTLFLQMTSLRSEDTAMYYCARIYYGNSFVYWGQGTLVTVSA VL: DIVMTQSPSSLTVTAGEKVIMSCKSSQSLLNSGNQKNYLTWYQQKPGQPPKMLIYWASTRESGVPDRFRGSGSGTDFTLTISSVQAEDLAVYYCQNNYYYPLTFGTGTKLALKR | CDC EC50 | 0.0756 µg/mL |
| chimeric 237D2A4 (antibody, human IgG1, kappa, V domains shown, chimeric, human IgG1/kappa constant regions; also called 237D2A4-Chimeric) VH: QVQLKESGPGLVAPSQSLSITCTVSGFSLTSYGVSWVRQPPGKGLEWLGVIWGDGSTNYHSTLISRLRISKDKSKSQVFLKLNSLQTDDTATYYCAKAGRGNALDYWGQGTSVTVSS VL: DIVMTQSPSSLTVTAGEKVTMSCKSSQSLLNSGNQKNYLTWYQQKPGQPPKLLIYWASTRESGVPDRFTGSGSGTDFTLTISSVQAEDLAVYYCQNDYSFPLTFGAGTKLELKR | CDC EC50 | 0.231 µg/mL |
| chimeric 260G9E8 (antibody, human IgG1, kappa, V domains shown, chimeric, human IgG1/kappa constant regions) VH: QADLQQSGAELVRSGASVKMSCKASGYTFASHNMHWVKQTPGQGLEWIGYIYPGNGGTKYNQKFTGKATLTADTSSSTAYMQITSLTSEDSAVYFCARDYYGNSFAYWGQGTLVTVSA VL: DIVMTQSPSSLTEKAGEKVSMRCKSSQSLLNSGNQKNYLTWYQQKPGQPPKLLIYWASTRESGVPDRFTGSGSGTDFTLTISSVQADDLAVYYCQNDYMFPFTFGAGTKLELKR | CDC EC50 | 0.336 µg/mL |
| chimeric 252E7C9 (antibody, human IgG1, kappa, V domains shown, chimeric, human IgG1/kappa constant regions) VH: QTYLQQSGAELVRSGASVKMSCRTSGYSFTSHNMHWVKQTPGQGLEWIGYIYPGNGGSYYNQKFKGKAILTADTSSSTAYMQISSLTSEDSAVYFCTRDYYGNSFVYWGQGTLVTVSA VL: DVVMTQSPSSLTEKTGEKVSMSCKSSQSLLNSGNQKNYLTWYQQKPGQPPKLLIYWASTRESGVPDRFTGSGSGTDFTLTISSLQTEDLAIYYCQNNFRYPFTFGAGTKLELKR | CDC EC50 | 0.272 µg/mL |
| chimeric 370E2B12C3 (antibody, human IgG1, kappa, V domains shown, chimeric, human IgG1/kappa constant regions; also called 370E2B12C3-chimeric) VH: QVQLKESGPGLVAPSQSLSITCTVSGFSLTTYGVHWVRQPPGKGLEWLGVIWAGGSTNYNSALMSRVSINKDNSKSQVFIKMNSLQADDTALYYCARAAYYGNGLDYWGQGTTLTVSS VL: DIVMTQSPSSLTVTAGEKVTMSCKSSQTLLNSGNQKNYLTWYQQKPGQPPKLLIYWASTGESGVPDRFTGSGSGTDFTLTISSVQAEDLAVYFCQNAYFYPFTFGGGTKLEIKR | CDC EC50 | 0.192 µg/mL |
